system: AIEC and cancer associated E. coli; assay: Soft agar motility assay, E. coli; type: cell-based; settings: 10 h, AIEC NC101, 541-1, cancer associated E. coli
attribute-measured: motility of E. coli

# compound, recorded-measurement
rows = [
    ("CB(O)O [MBA, methyl boronic acid, reference compound]", "had less impact"),
    ("OB(O)O [BA, Boric acid, reference compound]", "had less impact"),
]
